# System: barnyardgrass
# measurement-description: Test A preemergence
# Type: in vivo, Echinochloa crus-galli
# details: preemergence, 125 g ai/ha; visual injury, 0 to 100 scale, approx. 10 days
Barnyardgrass plant response rating for assorted molecules

Solved cases below.
smiles-repr: CCCCNC(=O)c1cc(CC)n(Oc2ccnc(C(F)(F)F)c2)n1
target-of-assay: barnyardgrass
Barnyardgrass plant response rating: 0
//
smiles-repr: Cc1cc(C(=O)NCC(F)(F)F)nn1Cc1ccc(F)c(C(F)(F)F)c1
target-of-assay: barnyardgrass
Barnyardgrass plant response rating: 0
//
smiles-repr: CCCc1cc(C(=O)NCC)nn1Cc1cc(C(F)(F)F)nn1C
target-of-assay: barnyardgrass
Barnyardgrass plant response rating: 90

Prompt: Name the value of Barnyardgrass plant response rating reported for "CCc1cc(C(=O)NCC(F)(F)F)nn1Oc1cccc(C(F)(F)F)n1" when tested on barnyardgrass.
Response: 0

Prompt: # return Barnyardgrass plant response rating for "O=C(NC1CC1)c1cc(Cl)n(Cc2cccc(C(F)(F)F)c2)n1" , test system: barnyardgrass
Response: 0

Prompt: Recall the reported Barnyardgrass plant response rating of "CCc1cc(C(=O)NC2CC2)nn1Oc1ccnc(C(F)(F)F)c1" on barnyardgrass and write it down.
Response: 10

Prompt: Fetch value of Barnyardgrass plant response rating on barnyardgrass for "CCCNC(=O)c1cc(C)n(Oc2ccnc(C(F)(F)F)c2)n1" .
Response: 10

Prompt: Enter recorded Barnyardgrass plant response rating with barnyardgrass for "CCCNC(=O)c1cc(CC)n(Cc2cc(OC(F)F)nn2C)n1" here.
Response: 0

Prompt: Give barnyardgrass Barnyardgrass plant response rating for the following molecule: "CCCNC(=O)c1cc(CC)n(Cc2cc(C(F)(F)F)no2)n1"
Response: 0

====

# Test system: morningglory
# measurement-description: Test A preemergence
# Type: in vivo, Ipomoea spp.
# details: Preemergence, 1000 g ai/ha; 0 to 100 scale, 0 no effect, 100 complete control
Quick list: Morningglory plant response rating per entry.
Field format: numeric only.

Some compounds with known Morningglory plant response rating results, for comparison:
smiles-repr: CCNC(=O)c1cc(CC)n(Cc2cccc(OC(F)(F)F)c2)n1
Morningglory plant response rating: 90
--
smiles-repr: CCc1cc(C(=O)NCCC(F)(F)F)nn1Cc1cccc(OC(F)(F)F)c1
Morningglory plant response rating: 20
--
smiles-repr: CCc1cc(C(=O)N(C)CC)nn1Cc1cccc(OC(F)(F)F)c1
Morningglory plant response rating: 0

Prompt: Kindly indicate its recorded Morningglory plant response rating. Item: "CCc1cc(C(=O)N(C)OC)nn1Cc1cccc(OC(F)(F)F)c1"
Response: 0

====

# Test system: foxtail, giant
# measurement-description: Test A preemergence
# Type: in vivo, Setaria faberii
# details: preemergence, 125 g ai/ha; visual injury, 0 to 100 scale, approx. 10 days
assay-endpoint: Foxtail, Giant plant response rating
Respond using a number only.

molecule: CCc1cc(C(=O)NC2CC2)nn1Cc1ccnc(OC(F)F)c1 [Compound 98]
Foxtail, Giant plant response rating: 100
//
molecule: CCc1cc(-c2ccc(Br)cc2)nn1Cc1ccnc(C(F)(F)F)c1 [Compound 112]
Foxtail, Giant plant response rating: 70

Prompt: State its Foxtail, Giant plant response rating: CCCc1cc(C(=O)NCC)nn1Cc1ccnc(C(F)(F)F)c1 [Compound 95]
Response: 100

Prompt: Give Foxtail, Giant plant response rating for the following molecule: CCc1cc(C(=O)NCC(F)(F)F)nn1Oc1ccnc(C(F)(F)F)c1 [Compound 84]
Response: 40
